All figures here come from patent US6288091A.

System: HCMV (strain AD169)
Assay: Inhibition of HCMV replication, plaque reduction assay (PRA, Hs-68 cells)
Type: cell-based, Human Cytomegalovirus (HCMV)
Conditions: Human betaherpesvirus 5, AD169, Hs68, Group 1 Table 2 entries, read-out: PRA CMV EC50
Examples of compounds with documented EC50 follow.
Please respond with the number in µM and leave the unit unwritten.

Here are 3 compounds together with their reported answers.
>>> df
                                   compound  measure  reported_measurement
0  Nc1nc(-c2ccc(NC(=O)CCN(CC3CCCCC3)C(=O)c3cccnc3)cc2)cs1 [Example 24]     EC50                    31
1  Nc1nc(-c2ccc(NC(=O)CCNCc3ccccc3)cc2)cs1 [Example 1]     EC50                    30
2  Nc1nc(-c2ccc(NC(=O)CCN(Cc3ccccc3)Cc3cccnc3)cc2)cs1 [Example 29]     EC50                    14

For the record Nc1nc(-c2ccc(NC(=O)CCN(Cc3ccccc3)Cc3ccccn3)cc2)cs1 [Example 26] , what value of EC50 is listed for HCMV (strain AD169)?
14

For the record C[C@H](NCCC(=O)Nc1ccc(-c2csc(N)n2)cc1)c1ccccc1 [Example 20] , what value of EC50 is listed for HCMV (strain AD169)?
13

---

Examples of compounds with documented pEC50 follow.
Tested on: HCMV (strain AD169)
Experiment: Inhibition of HCMV replication, ELISA assay (Hs-68 cells)
Assay type: cell-based, Human Cytomegalovirus (HCMV)
Conditions: Human betaherpesvirus 5, AD169, Hs68, Group 1 Table 2 entries, read-out: ELISA CMV EC50
Notebook: values listed as pEC50 are -log10 of the concentration (mol/L).

Here are 2 compounds together with their reported answers.
In [3]: df
Out[3]:
                                   compound  reported_measurement
0  Nc1nc(-c2ccc(NC(=O)CCN(CC3CCCCC3)C(=O)c3cccnc3)cc2)cs1                  6.35
1  Nc1nc(-c2ccc(NC(=O)CCNCc3cccc(F)c3)cc2)cs1                  5.18

Give its pEC50 value. Item: CCCC(CCC)NCCC(=O)Nc1ccc(-c2csc(N)n2)cc1
5.40

Give its pEC50 value. Item: CC(C)(C)OC(=O)N(CCC(=O)Nc1ccc(-c2csc(N)n2)cc1)CC1CCCCC1
5.38

Give its pEC50 value. Item: Nc1nc(-c2ccc(NC(=O)CCNCC3CCCCC3)cc2)cs1
5.32

Give its pEC50 value. Item: C[C@@H](c1ccccc1)N(CCC(=O)Nc1ccc(-c2csc(N)n2)cc1)C(=O)OC(C)(C)C
5.54

Give its pEC50 value. Item: Nc1nc(-c2ccc(NC(=O)CCNC3CCc4ccccc43)cc2)cs1 (stereo not shown)
5.22

Give its pEC50 value. Item: Nc1nc(-c2ccc(NC(=O)CCNCc3ccccc3)cc2)cs1
5.49

Give its pEC50 value. Item: Nc1nc(-c2ccc(NC(=O)CCN(Cc3ccccc3)C(=O)c3ccccc3)cc2)cs1
5.92

---

Examples of molecules with documented IC50 follow.
Molecular target: HSV-1 helicase-primase (Human herpesvirus 1, UniProt P10189+P10236)
Construct: made in house; host or cells: Sf21 insect cells triply infected with recombinant baculoviruses (UL5, UL8, UL52)
Sequence (P10192 whole entry): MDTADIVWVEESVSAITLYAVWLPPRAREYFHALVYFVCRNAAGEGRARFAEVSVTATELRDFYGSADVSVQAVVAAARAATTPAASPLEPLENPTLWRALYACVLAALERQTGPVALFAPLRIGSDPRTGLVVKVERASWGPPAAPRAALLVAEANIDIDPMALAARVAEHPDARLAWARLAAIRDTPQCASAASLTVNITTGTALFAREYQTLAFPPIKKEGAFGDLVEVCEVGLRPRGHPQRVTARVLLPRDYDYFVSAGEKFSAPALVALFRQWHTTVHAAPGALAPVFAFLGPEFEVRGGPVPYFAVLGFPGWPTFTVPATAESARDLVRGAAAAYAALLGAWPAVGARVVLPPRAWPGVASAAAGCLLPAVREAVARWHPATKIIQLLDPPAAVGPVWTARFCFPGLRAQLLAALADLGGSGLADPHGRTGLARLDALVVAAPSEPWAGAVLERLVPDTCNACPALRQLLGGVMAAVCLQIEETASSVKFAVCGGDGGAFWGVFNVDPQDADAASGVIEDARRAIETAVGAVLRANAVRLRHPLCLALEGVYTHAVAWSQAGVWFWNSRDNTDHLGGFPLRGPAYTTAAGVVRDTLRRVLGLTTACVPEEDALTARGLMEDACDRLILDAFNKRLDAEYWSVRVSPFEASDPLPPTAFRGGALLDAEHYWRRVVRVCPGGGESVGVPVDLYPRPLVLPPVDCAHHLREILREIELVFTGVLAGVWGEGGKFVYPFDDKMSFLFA
Sequence (P10236 whole entry): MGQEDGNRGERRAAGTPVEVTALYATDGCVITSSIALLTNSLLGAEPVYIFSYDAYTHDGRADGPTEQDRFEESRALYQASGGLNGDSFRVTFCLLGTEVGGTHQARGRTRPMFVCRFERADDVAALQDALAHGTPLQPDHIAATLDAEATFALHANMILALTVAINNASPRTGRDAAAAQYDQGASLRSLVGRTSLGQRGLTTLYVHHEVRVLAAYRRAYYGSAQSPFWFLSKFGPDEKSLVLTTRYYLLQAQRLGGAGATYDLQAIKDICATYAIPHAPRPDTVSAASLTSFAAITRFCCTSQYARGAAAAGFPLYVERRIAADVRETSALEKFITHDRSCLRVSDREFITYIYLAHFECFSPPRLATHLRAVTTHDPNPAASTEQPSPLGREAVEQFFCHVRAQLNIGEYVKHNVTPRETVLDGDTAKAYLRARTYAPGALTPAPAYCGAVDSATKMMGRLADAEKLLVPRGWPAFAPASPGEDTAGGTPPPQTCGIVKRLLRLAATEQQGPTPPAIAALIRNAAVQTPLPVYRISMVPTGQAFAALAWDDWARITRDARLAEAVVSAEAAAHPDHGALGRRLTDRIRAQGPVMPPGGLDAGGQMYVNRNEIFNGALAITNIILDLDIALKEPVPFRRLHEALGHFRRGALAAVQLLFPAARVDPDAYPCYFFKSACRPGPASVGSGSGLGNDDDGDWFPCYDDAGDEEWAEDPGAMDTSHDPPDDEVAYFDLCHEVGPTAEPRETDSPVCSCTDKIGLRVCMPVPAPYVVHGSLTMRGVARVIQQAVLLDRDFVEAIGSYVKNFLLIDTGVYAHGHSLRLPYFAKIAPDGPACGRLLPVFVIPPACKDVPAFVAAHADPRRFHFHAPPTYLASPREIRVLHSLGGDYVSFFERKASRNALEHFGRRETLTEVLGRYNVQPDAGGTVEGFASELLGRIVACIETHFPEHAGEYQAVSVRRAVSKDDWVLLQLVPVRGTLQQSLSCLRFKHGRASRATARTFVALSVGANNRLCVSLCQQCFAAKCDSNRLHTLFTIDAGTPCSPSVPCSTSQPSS
Sequence (P10189 whole entry): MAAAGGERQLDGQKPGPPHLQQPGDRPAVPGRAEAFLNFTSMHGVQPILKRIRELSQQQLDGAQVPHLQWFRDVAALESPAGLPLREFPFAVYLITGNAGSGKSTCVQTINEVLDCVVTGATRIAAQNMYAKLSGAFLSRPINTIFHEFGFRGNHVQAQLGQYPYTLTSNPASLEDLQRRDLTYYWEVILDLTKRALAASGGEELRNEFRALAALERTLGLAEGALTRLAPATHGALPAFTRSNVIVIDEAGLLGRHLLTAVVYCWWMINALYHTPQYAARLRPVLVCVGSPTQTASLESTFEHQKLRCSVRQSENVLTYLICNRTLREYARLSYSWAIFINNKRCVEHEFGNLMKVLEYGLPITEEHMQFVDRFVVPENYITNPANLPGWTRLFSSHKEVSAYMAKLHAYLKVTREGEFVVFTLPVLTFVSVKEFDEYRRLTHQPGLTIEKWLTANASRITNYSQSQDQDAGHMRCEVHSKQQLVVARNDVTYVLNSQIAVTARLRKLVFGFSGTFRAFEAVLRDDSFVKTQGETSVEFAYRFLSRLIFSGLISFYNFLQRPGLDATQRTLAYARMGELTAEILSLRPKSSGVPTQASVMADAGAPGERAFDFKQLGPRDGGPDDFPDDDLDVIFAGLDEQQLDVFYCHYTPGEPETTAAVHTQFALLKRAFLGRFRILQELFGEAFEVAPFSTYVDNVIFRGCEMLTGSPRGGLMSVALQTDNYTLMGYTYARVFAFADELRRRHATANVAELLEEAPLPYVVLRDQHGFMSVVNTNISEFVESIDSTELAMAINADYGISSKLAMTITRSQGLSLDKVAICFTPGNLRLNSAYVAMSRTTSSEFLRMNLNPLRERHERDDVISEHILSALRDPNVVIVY
Test: HSV-1 DNA-dependent ATPase assay (inhibition of HSV-1 helicase-primase)
Format: biochemical
Conditions: Group 1 Table 5 entries
Please respond with the number in nM and leave the unit unwritten.

                                   molecule  measure  readout_units  reported_measurement
0  Nc1nc(-c2ccc(NC(=O)[C@H](Cc3ccccc3)NC(=O)C3CCCCC3)cc2)cs1 [Example 1]     IC50             nM                    52
1  CC(C)(C)OC(=O)N[C@@H](Cc1ccccc1)C(=O)Nc1ccc(-c2csc(N)n2)cc1 [Example 3]     IC50             nM                    46

Give its IC50 value. Item: CC(C)(C)OC(=O)N[C@H](Cc1ccccc1)C(=O)Nc1ccc(-c2csc(N)n2)cc1 [Example 4]
1500

Give its IC50 value. Item: CC(C)(C)C(=O)N[C@@H](Cc1ccccc1)C(=O)Nc1ccc(-c2csc(N)n2)cc1 [Example 20]
1300

Give its IC50 value. Item: CN[C@@H](Cc1ccccc1)C(=O)Nc1ccc(-c2csc(N)n2)cc1 [Example 8]
45000
